TARGET_OR_SYSTEM: Cytochrome P450 2C9 (Homo sapiens)
EXPERIMENTAL_DETAILS: Cytochrome panel assay with activity outcomes
MEASUREMENT_CONTEXT: recombinant CYP, pro-luciferin dealkylation, luminescence, p450-cyp2c9; series mostly up to 57.1 µM
Description: The P450 gene superfamily is involved in the metabolism and clearance of xenobiotics. This assay used various human CYP P450 isozymes to measure the dealkylation of various pro-luciferin substrates to luciferin. The luciferin is then measured by luminescence after the addition of a luciferase detection reagent. […] Inhibitors and some substrates limit the production of luciferin, and decrease measured luminescence. […] 8, Detection, 1 sec, ViewLux luminescent read […]
In all, about 16,000 compounds went through this assay and about 4,000 (25%) were called active. About 26% were inconclusive and are not listed. The call rests on the fitted dose curve; in most records, active means well fitted curve in the direction sought with a large enough effect; inconclusive means small, poorly fitted or top-dose-only effect, or effect the other way; inactive means no such curve, though single readings can be large or run the other way. A selection follows.
Form entry, call: pick from True for active, False for inactive

Q: Status in this test for CC(C)NCCOCCSc1ccc(Cl)cc1 ?
A: False

Q: Status in this test for O=C(NN=C1C2CC3CC(C2)CC1C3)c1ccncc1 ?
A: False

Q: Status in this test for COCCNC(=O)c1onc(CSc2cccc(Cl)c2)c1C(=O)O ?
A: True

Q: Status in this test for Cc1cccc(NC(=O)CSc2nc(COc3ccccc3)nc3ccccc23)c1C ?
A: True

Q: Status in this test for COCCNC(=O)c1onc(CSc2ccc(Cl)cc2)c1C(=O)O ?
A: True

Q: Status in this test for COCCCNC(=O)/C=C/c1ccc(Cl)cc1 ?
A: False

###

TARGET_OR_SYSTEM: Cytochrome P450 2C9 (Homo sapiens)
EXPERIMENTAL_DETAILS: Cytochrome panel assay with activity outcomes
MEASUREMENT_CONTEXT: recombinant CYP, pro-luciferin dealkylation, luminescence, p450-cyp2c9; series mostly up to 57.1 µM
Among all 16,000 compounds or so, about 4,000 (25%) were called active. About 26% were inconclusive and are not listed. The call rests on the fitted dose curve; in most records, active means well fitted curve in the direction sought with a large enough effect; inconclusive means small, poorly fitted or top-dose-only effect, or effect the other way; inactive means no such curve, though single readings can be large or run the other way. Not all results are given here.
Form entry, call: pick from 1 (active), 0 (inactive)

Below are worked cases with known answers.
Q: Status in this test for CCCc1nnc(NC(=O)CCC(=O)N2CCN(c3ccccn3)CC2)s1 ?
A: 0

Q: Status in this test for COc1ccc(-c2csc(NC(=O)CCn3cnc4ccccc4c3=O)n2)cc1OC ?
A: 1

Q: Status in this test for O=C(Cn1cnc2ccccc2c1=O)Nc1nnc(SCc2ccccc2)s1 ?
A: 1

Q: Status in this test for CCCc1nnc(NC(=O)CCC(=O)NCc2ccccc2OC)s1 ?
A: 0

Q: Status in this test for O=c1nc(N2CCCCCC2)nc(N2CCCCCC2)[nH]1 ?
A: 0

Lab note: next compound to report on.
Q: Status in this test for CCCc1nnc(NC(=O)Cn2cnc3ccccc3c2=O)s1 ?
A: 1

###

TARGET_OR_SYSTEM: Cytochrome P450 2C9 (Homo sapiens) (UniProt P11712)
Sequence (P11712 whole entry, looked up): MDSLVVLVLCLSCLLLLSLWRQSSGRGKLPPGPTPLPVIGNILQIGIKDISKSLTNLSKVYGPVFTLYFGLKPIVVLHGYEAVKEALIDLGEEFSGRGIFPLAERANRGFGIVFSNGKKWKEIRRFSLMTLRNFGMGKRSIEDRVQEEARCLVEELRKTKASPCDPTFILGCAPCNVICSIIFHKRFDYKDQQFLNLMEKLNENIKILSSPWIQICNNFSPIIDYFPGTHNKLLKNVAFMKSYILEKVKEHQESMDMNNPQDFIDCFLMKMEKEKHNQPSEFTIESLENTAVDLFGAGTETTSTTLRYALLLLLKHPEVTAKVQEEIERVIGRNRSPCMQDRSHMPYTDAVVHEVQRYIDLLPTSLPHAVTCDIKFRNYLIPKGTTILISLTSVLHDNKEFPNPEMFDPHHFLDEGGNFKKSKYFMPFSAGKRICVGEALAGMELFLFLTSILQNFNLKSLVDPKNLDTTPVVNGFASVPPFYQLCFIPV
EXPERIMENTAL_DETAILS: Cytochrome panel assay with activity outcomes
MEASUREMENT_CONTEXT: recombinant CYP, pro-luciferin dealkylation, luminescence, p450-cyp2c9; series mostly up to 57.1 µM
Method: The P450 gene superfamily is involved in the metabolism and clearance of xenobiotics. This assay used various human CYP P450 isozymes to measure the dealkylation of various pro-luciferin substrates to luciferin. The luciferin is then measured by luminescence after the addition of a luciferase detection reagent. […] Inhibitors and some substrates limit the production of luciferin, and decrease measured luminescence. […] 8, Detection, 1 sec, ViewLux luminescent read […]
The whole screen tested about 16,000 compounds, of which about 4,000 (25%) were called active. Inconclusive results (about 26%) are left out. The call rests on the fitted dose curve; in most records, active means well fitted curve in the direction sought with a large enough effect; inconclusive means small, poorly fitted or top-dose-only effect, or effect the other way; inactive means no such curve, though single readings can be large or run the other way. The list is a sample of the results.
Form entry, call: pick from active, inactive

Below are worked cases with known answers.
Q: Status in this test for O=C(CSc1nc2ccccc2c(=O)n1CCCO)NCc1ccccc1 ?
A: active

Q: Status in this test for COc1cc2c(cc1OC)C(C(=O)N1CCOCC1)C(c1cccs1)N(C)C2=O (stereo not given) ?
A: inactive

Q: Status in this test for CCC(C)NC(=O)C1c2cc(OC)c(OC)cc2C(=O)N(C)C1c1cccs1 (stereo not given) ?
A: inactive

Q: Status in this test for CN(C)CCN1C(=O)C(O)=C(C(=O)c2cc3ccccc3o2)C1c1cccc(Br)c1 (stereo not given) ?
A: inactive

New cases:
Q: Status in this test for O=C(CSc1nc2ccccc2c(=O)n1NC(=O)Cc1ccccc1)NCc1ccccc1Cl ?
A: active

Q: Status in this test for O=C(O)CCCCCn1c(SCC(=O)N2CCCC2)nc2ccsc2c1=O ?
A: inactive

###

TARGET_OR_SYSTEM: Cytochrome P450 2C9 (Homo sapiens) (UniProt P11712)
EXPERIMENTAL_DETAILS: Cytochrome panel assay with activity outcomes; on activity, negative = inhibition: on the % scale 0 is the no-effect control and ±100 the full control effect
MEASUREMENT_CONTEXT: recombinant CYP, pro-luciferin dealkylation, luminescence, p450-cyp2c9; series mostly up to 57.1 µM
Among all 16,000 compounds or so, about 4,000 (25%) were called active. Inconclusive results (about 26%) are left out. These entries were drawn from the full list.
MEASURED_PROPERTY: activity, negative = inhibition

Q: Fill in: activity, negative = inhibition of CC(=O)OC[C@@H]1O[C@@H](O/N=C2/C[C@@H](O)[C@@H](O)[C@@H]3[C@H]4C(=O)N(c5ccc(F)cc5F)C(=O)[C@@H]4CC[C@H]23)[C@H](OC(C)=O)[C@H](OC(C)=O)[C@@H]1OC(C)=O is ___
A: 29.1% [at 11.4 µM] (inactive)

Q: Fill in: activity, negative = inhibition of c1cc(NNc2cccc(-c3nn[nH]n3)c2)cc(-c2nn[nH]n2)c1 is ___
A: -4.17% [at 11.4 µM] (inactive)

Q: Fill in: activity, negative = inhibition of O=C(/C=C\c1ccccc1)c1ccccc1O is ___
A: -9.15% [at 11.4 µM] (inactive)

Q: Fill in: activity, negative = inhibition of O=C(O)[C@@H]1[C@@H](C(=O)NCc2ccncc2)[C@@H]2C=C[C@@H]1O2 is ___
A: -12.4% [at 11.4 µM] (inactive)

Q: Fill in: activity, negative = inhibition of N=C(N)SCCc1ccncc1 is ___
A: 6.27% [at 11.4 µM] (inactive)

Next item in the queue.
Q: Fill in: activity, negative = inhibition of COC(=O)[C@]1(C)CCC(c2ccc(C)cc2)=C(CC(=O)O)C1 is ___
A: 3.21% [at 11.4 µM] (inactive)

###

TARGET_OR_SYSTEM: Cytochrome P450 2C9 (Homo sapiens) (UniProt P11712)
EXPERIMENTAL_DETAILS: Cytochrome panel assay with activity outcomes
MEASUREMENT_CONTEXT: recombinant CYP, pro-luciferin dealkylation, luminescence, p450-cyp2c9; series mostly up to 57.1 µM
Among all 16,000 compounds or so, about 4,000 (25%) were called active. About 26% were inconclusive and are not listed. The call rests on the fitted dose curve; in most records, active means well fitted curve in the direction sought with a large enough effect; inconclusive means small, poorly fitted or top-dose-only effect, or effect the other way; inactive means no such curve, though single readings can be large or run the other way. Not all results are given here.
Form entry, call: pick from active, inactive

Below are worked cases with known answers.
Q: Status in this test for Cc1cc([N+](=O)[O-])ccc1NCc1ccccc1 ?
A: active

Q: Status in this test for COCC(=O)N/N=C/c1ccc(Sc2nc3ccccc3s2)o1 ?
A: inactive

New cases:
Q: Status in this test for CCOC(=O)c1[nH]c(C)c(/C(O)=C2\C(=O)C(=O)N(CCN3CCOCC3)C2c2cccs2)c1C (stereo not given) ?
A: inactive

Q: Status in this test for O=C1C(O)=C(O)C(=O)C(O)=C1O ?
A: inactive

###

TARGET_OR_SYSTEM: Cytochrome P450 2C9 (Homo sapiens) (UniProt P11712)
EXPERIMENTAL_DETAILS: Cytochrome panel assay with activity outcomes; on activity, negative = inhibition: on the % scale 0 is the no-effect control and ±100 the full control effect
MEASUREMENT_CONTEXT: recombinant CYP, pro-luciferin dealkylation, luminescence, p450-cyp2c9; series mostly up to 57.1 µM
In all, about 16,000 compounds went through this assay and about 4,000 (25%) were called active. About 26% were inconclusive and are not listed. A selection follows.
Quick reference: activity, negative = inhibition of the listed items.

Reference set (4 entries):
Q: Fill in: activity, negative = inhibition of Nc1nc2c(c(=O)[nH]1)CN(c1ccc(S(N)(=O)=O)cc1)CN2 is ___
A: 7.1% [at 11.4 µM] (inactive)

Q: Fill in: activity, negative = inhibition of C#CCCCO/N=C1/C[C@@H](O)[C@@H](O)[C@@H]2[C@@H]3C(=O)N(C4CCCCC4)C(=O)[C@H]3CC[C@H]12 is ___
A: 6.11% [at 11.4 µM] (inactive)

Q: Fill in: activity, negative = inhibition of c1ccc2sc(SCSc3nc4ccccc4s3)nc2c1 is ___
A: -1.3% [at 11.4 µM] (inactive)

Q: Fill in: activity, negative = inhibition of O=c1cc(CF)[nH]c(=S)[nH]1 is ___
A: 8.7% [at 11.4 µM] (inactive)

Next item in the queue.
Q: Fill in: activity, negative = inhibition of O=C1[C@H]2[C@H]3[C@H](O)[C@H](O)C/C(=N/OCc4ccccc4)[C@H]3CC[C@@H]2C(=O)N1Cc1ccc2c(c1)OCO2 is ___
A: -16.6% [at 11.4 µM] (inactive)
